Molecular target: T1, human CD38 Fc-fusion aa 45-300 (human, UniProt P28907 45-300)
T1 construct: Expressed in HEK293 behind a human Vkappa leader, which is left out here; also called CD38-Fc fusion protein; CD38 Fc-Fusion protein
Experiment: ELISA on CD38 Fc-fusion protein, IgG format
PROPERTY_LABEL: ELISA CD38 Fc-Fusion protein (% Reactivity of MOR03087) (%)
Provide only the numeric value, understood in %.

**Query** GET /values?readout=ELISA CD38 Fc-Fusion protein (% Reactivity of MOR03087)&item= MOR06200 IgG (antibody, V domains shown, copies: 2 + 2) VH: QVQLVESGGGLVQPGGSLRLSCAASGFTFSSYYMNWVRQAPGKGLEWVSAISNNGNVTYYADSVKGRFTISRDNSKNTLYLQMNSLRAEDTAVYYCARDLPLVYTGFAYWGQGTLVTVSS VL: DIELTQPPSVSVAPGQTARISCSGDNLRHYYVYWYQQKPGQAPVLVIYGDSKRPSGIPERFSGSNSGNTATLTISGTQAEDEADYYCQTYTGGASLVFGGGTKLTVLG
**Result** 144

**Query** GET /values?readout=ELISA CD38 Fc-Fusion protein (% Reactivity of MOR03087)&item= MOR03087 IgG1 (antibody, V domains shown) VH: QVQLVESGGGLVQPGGSLRLSCAASGFTFSSYYMNWVRQAPGKGLEWVSGISGDPSNTYYADSVKGRFTISRDNSKNTLYLQMNSLRAEDTAVYYCARDLPLVYTGFAYWGQGTLVTVSS VL: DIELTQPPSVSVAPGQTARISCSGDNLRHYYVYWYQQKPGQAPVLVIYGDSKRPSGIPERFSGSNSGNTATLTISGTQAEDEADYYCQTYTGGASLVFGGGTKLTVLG
**Result** 100

**Query** GET /values?readout=ELISA CD38 Fc-Fusion protein (% Reactivity of MOR03087)&item= MOR06186 IgG (antibody, V domains shown) VH: QVQLVESGGGLVQPGGSLRLSCAASGFTFSSYYMNWVRQAPGKGLEWVSAINLSGSAKYYADSVKGRFTISRDNSKNTLYLQMNSLRAEDTAVYYCARDLPLVYTGFAYWGQGTLVTVSS VL: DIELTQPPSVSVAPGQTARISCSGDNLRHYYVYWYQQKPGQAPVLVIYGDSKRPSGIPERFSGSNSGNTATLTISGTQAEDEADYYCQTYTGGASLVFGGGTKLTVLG
**Result** 117

**Query** GET /values?readout=ELISA CD38 Fc-Fusion protein (% Reactivity of MOR03087)&item= MOR06184 IgG (antibody, V domains shown) VH: QVQLVESGGGLVQPGGSLRLSCAASGFTFSSYYMNWVRQAPGKGLEWVSAISHDGNVKYYADSVKGRFTISRDNSKNTLYLQMNSLRAEDTAVYYCARDLPLVYTGFAYWGQGTLVTVSS VL: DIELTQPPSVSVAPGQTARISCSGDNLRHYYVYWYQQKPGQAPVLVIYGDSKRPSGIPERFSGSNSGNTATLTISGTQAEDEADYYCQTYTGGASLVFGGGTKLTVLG
**Result** 150
